Biological target: T1, ZFP SBS#1102 (synthetic)
T1 chain: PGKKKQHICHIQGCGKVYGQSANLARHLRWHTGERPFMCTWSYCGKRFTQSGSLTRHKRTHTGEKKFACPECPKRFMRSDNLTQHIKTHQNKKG
Assay: EMSA
Settings: tags: MBP fusion
READOUT TYPE: pKd
Entry type: numeric. Quantity: pKd, the -log10 of concentration in molar units.

Could you tell me which pKd is on file for AAGGCAGAA (dsDNA) DNA 1: AAGGCAGAA DNA 2: TTCTGCCTT ?
8.09
